tested on: DRAK2; construct: gene STK17B; details: concentration: 1 μM, replicates: in singlicate; n = 1;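 further: KINOMEscan kinase panel screen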

[
  {
    "COMPOUND": "CCS(=O)(=O)c1ccc(OC)c(Nc2ncc(-c3ccc(F)cc3)o2)c1.Cl [GW591947]",
    "UNIT STRING": "%",
    "%Inh": 0
  },
  {
    "COMPOUND": "Nc1nc(-c2ccccc2F)c(-c2ccnc3ccccc23)s1 [GW560459]",
    "UNIT STRING": "%",
    "%Inh": 3
  },
  {
    "COMPOUND": "COc1ccc(-n2cnc3c(N)ncnc32)cc1 [SKF-97236]",
    "UNIT STRING": "%",
    "%Inh": 0
  },
  {
    "COMPOUND": "CCc1ccc(-c2ccc3c(c2)-c2nn(C)cc2S(=O)(=O)N3C)cc1",
    "UNIT STRING": "%",
    "%Inh": 0
  },
  {
    "COMPOUND": "Cc1ccccc1COc1cc(-n2cnc3cc(Cl)ccc32)sc1C(N)=O [GW813349]",
    "UNIT STRING": "%",
    "%Inh": 1
  },
  {
    "COMPOUND": "COc1cc2ncn(-c3cc(OCc4ccncc4Br)c(C(N)=O)s3)c2cc1OC [GW854278]",
    "UNIT STRING": "%",
    "%Inh": 5
  },
  {
    "COMPOUND": "Nc1n[nH]c2nnc(-c3ccccc3)c(-c3ccccc3)c12 [GW554060]",
    "UNIT STRING": "%",
    "%Inh": 0
  },
  {
    "COMPOUND": "COc1cc(Nc2nccc(N3CCC(NC(=O)C(C)c4ccc(Cl)cc4)C3)n2)cc(OC)c1OC (stereo not drawn) [GSK1379757]",
    "UNIT STRING": "%",
    "%Inh": 0
  },
  {
    "COMPOUND": "O=C(Nc1n[nH]c2nc(-c3ccccc3)c(Cl)cc12)C1CC1 [SB-734909]",
    "UNIT STRING": "%",
    "%Inh": 0
  }
]

* * *

test system: PAK6; settings: concentration: 1 μM, replicates: in singlicate; n = 1
Kindly apply the following: Y if %Inh is less than 3%, N in every other case.

[
  {
    "COMPOUND": "Nc1ncnc2c1ncn2-c1ccc(Cl)cc1 [AH2635]",
    "ASSAYED TARGET": "PAK6",
    "DISCRETE LABEL": "Y"
  },
  {
    "COMPOUND": "CCn1c(-c2ccoc2)nc2cnccc21 [SB-733887]",
    "ASSAYED TARGET": "PAK6",
    "DISCRETE LABEL": "Y"
  },
  {
    "COMPOUND": "Fc1cccc(CSc2nnc(-c3ccc4c(c3)CCO4)o2)c1",
    "ASSAYED TARGET": "PAK6",
    "DISCRETE LABEL": "N"
  },
  {
    "COMPOUND": "CN1C(=O)C(Nc2cc(Cl)c(O)c(Cl)c2)=C(c2ccc(Cl)cc2)C1=O [SB-404321]",
    "ASSAYED TARGET": "PAK6",
    "DISCRETE LABEL": "Y"
  },
  {
    "COMPOUND": "COc1ccc(Nc2nccc(N3CCC(NS(=O)(=O)c4ccc(NC(C)=O)cc4)C3)n2)cc1 (stereo not shown) [GSK1379729]",
    "ASSAYED TARGET": "PAK6",
    "DISCRETE LABEL": "Y"
  },
  {
    "COMPOUND": "Cc1ccc(-c2ccc3c(ccc4sc5c(c43)NC[C@@H](C)N=C5N(C)C)n2)cn1",
    "ASSAYED TARGET": "PAK6",
    "DISCRETE LABEL": "Y"
  },
  {
    "COMPOUND": "Cc1cccc(-c2nc(Nc3ccc4c(cnn4C)c3)c3ccccc3n2)n1 [GW876731]",
    "ASSAYED TARGET": "PAK6",
    "DISCRETE LABEL": "N"
  },
  {
    "COMPOUND": "Cc1nnc(-c2ccc(C)c(-c3ccc(C(=O)O)cc3)c2)o1 [GW608005]",
    "ASSAYED TARGET": "PAK6",
    "DISCRETE LABEL": "Y"
  },
  {
    "COMPOUND": "COC(=O)c1c(-c2ccccc2)c2cc(Br)ccc2c(=O)n1Cc1ccc(S(C)(=O)=O)cc1",
    "ASSAYED TARGET": "PAK6",
    "DISCRETE LABEL": "N"
  },
  {
    "COMPOUND": "COc1cc2nccc(Nc3ccc(OCc4ccc(NC(C)=O)cc4)cc3)c2cc1OC.Cl [GW440135]",
    "ASSAYED TARGET": "PAK6",
    "DISCRETE LABEL": "Y"
  },
  {
    "COMPOUND": "CCc1ccc(-c2ccc3c(c2)-c2nn(C)cc2S(=O)(=O)N3C)cc1",
    "ASSAYED TARGET": "PAK6",
    "DISCRETE LABEL": "N"
  },
  {
    "COMPOUND": "CCS(=O)c1ccc(-c2coc3ccc(-c4nnc(C)o4)cc23)cc1 (stereo not shown)",
    "ASSAYED TARGET": "PAK6",
    "DISCRETE LABEL": "N"
  },
  {
    "COMPOUND": "Nc1ncnc2c1ncn2-c1cccc(F)c1 [SKF-97560]",
    "ASSAYED TARGET": "PAK6",
    "DISCRETE LABEL": "N"
  },
  {
    "COMPOUND": "COc1ccc(-n2cnc3c(N)ncnc32)cc1 [SKF-97236]",
    "ASSAYED TARGET": "PAK6",
    "DISCRETE LABEL": "N"
  },
  {
    "COMPOUND": "COc1cc(Nc2nccc(N3CCC(NC(=O)C(C)c4ccc(Cl)cc4)C3)n2)cc(OC)c1OC (stereo not shown) [GSK1379757]",
    "ASSAYED TARGET": "PAK6",
    "DISCRETE LABEL": "Y"
  },
  {
    "COMPOUND": "COc1cccc(-n2cnc3c(N)ncnc32)c1 [SKF-97416]",
    "ASSAYED TARGET": "PAK6",
    "DISCRETE LABEL": "N"
  },
  {
    "COMPOUND": "COc1cc2ncn(-c3cc(OCc4ccc(S(C)(=O)=O)cc4)c(C(N)=O)s3)c2cc1OC [GW869979]",
    "ASSAYED TARGET": "PAK6",
    "DISCRETE LABEL": "Y"
  }
]

* * *

Below, each entry is listed alongside its reported %Inh.
tested on: DDR2; settings: concentration: 1 μM, replicates: in singlicate; n = 1

[
  {
    "COMPOUND": "CN1C(=O)C(Nc2cc(Cl)c(O)c(Cl)c2)=C(c2ccc(Cl)cc2)C1=O [SB-404321]",
    "%Inh [%]": 10
  },
  {
    "COMPOUND": "CCS(=O)c1ccc(-c2coc3ccc(-c4nnc(C)o4)cc23)cc1 (stereo not drawn)",
    "%Inh [%]": 16
  },
  {
    "COMPOUND": "COc1ccc(Nc2nccc(N3CCC(NS(=O)(=O)c4ccc(NC(C)=O)cc4)C3)n2)cc1 (stereo not drawn) [GSK1379729]",
    "%Inh [%]": 26
  },
  {
    "COMPOUND": "CCC(=O)c1c(-c2ccccc2)c2cc(Cl)ccc2c(=O)n1Cc1cc(S(C)(=O)=O)n(CCC(C)(C)O)n1",
    "%Inh [%]": 0
  },
  {
    "COMPOUND": "Cc1nc(N(C)[C@H]2CN(C(=O)CC#N)CC[C@H]2C)c2cc[nH]c2n1",
    "%Inh [%]": 2
  },
  {
    "COMPOUND": "CCCC(=O)Nc1n[nH]c2ncc(-c3cccc4ccccc34)cc12 [SB-642057]",
    "%Inh [%]": 0
  },
  {
    "COMPOUND": "COc1cc2ncn(-c3cc(OCc4ccncc4Br)c(C(N)=O)s3)c2cc1OC [GW854278]",
    "%Inh [%]": 0
  },
  {
    "COMPOUND": "COc1cccc(C2=C(Nc3cccc(C(=O)O)c3)C(=O)NC2=O)c1 [SB-390770]",
    "%Inh [%]": 6
  },
  {
    "COMPOUND": "CCc1nc(-c2cccc(C)c2)c(-c2ccncc2)s1",
    "%Inh [%]": 17
  },
  {
    "COMPOUND": "Cl.NS(=O)(=O)c1cccc(Nc2cc(-c3ccc(F)cc3)n[nH]2)c1 [GW824645]",
    "%Inh [%]": 45
  },
  {
    "COMPOUND": "COc1cc2ncn(-c3cc(OCCCc4ccccc4)c(C(N)=O)s3)c2cc1OC [GSK205189]",
    "%Inh [%]": 3
  },
  {
    "COMPOUND": "O=C(Nc1n[nH]c2nc(-c3ccccc3)c(Br)cc12)C1CC1 [SB-708998]",
    "%Inh [%]": 9
  }
]
